# System: biotinyl-Met-oxazolone
# measurement.notes: self-aminoacylation, catalytic enhancement (BMO) (fold over background); higher = more active; k-Seq, kA / k0A0; sequences stand for … in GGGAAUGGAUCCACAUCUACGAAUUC…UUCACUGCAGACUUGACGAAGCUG
Variants at the floor of the assay were thinned out.
sequences and their reported self-aminoacylation
attribute.measured: self-aminoacylation

1) CCACACUUCAAUCAAUCGAUC [Fam1B.1 aminoacylation ribozyme variant] : 0.463
2) AUUACCCUGGAAAUCGAGUGA [Fam2.1 aminoacylation ribozyme variant] : 19.4
3) CCACACUUCAGGCAAUCGGUU [Fam1B.1 aminoacylation ribozyme variant] : 2.24
4) AAGUUUGCUAACAGUCGCCAG [Fam3.1 aminoacylation ribozyme variant] : 1.45
5) CUACUUCAAAGAAUCGAUCUG [Fam1A.1 aminoacylation ribozyme variant] : 0.454
6) AUUACGCUGGUAAUCGAGUGA [Fam2.1 aminoacylation ribozyme variant] : 5.48
7) AGUAUCCUGGUCAUCGAGUGA [Fam2.1 aminoacylation ribozyme variant] : 6.72
8) AAGUUUGCUAUUAGUCGCUAG [Fam3.1 aminoacylation ribozyme variant] : 1.01
9) AUUCAUCGAGGUCAUCGGGUG [Fam2.2 aminoacylation ribozyme variant] : 12

----------
# System: biotinyl-Ile-oxazolone
# measurement.notes: self-aminoacylation, catalytic enhancement (BIO) (fold over background); higher = more active; k-Seq, kA / k0A0; sequences stand for … in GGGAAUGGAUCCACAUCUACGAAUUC…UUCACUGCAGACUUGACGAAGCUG
This sample holds only a part of the variants without activity.
attribute.measured: self-aminoacylation

1. CCACACUUCAAGCAAACGGUG [Fam1B.1 aminoacylation ribozyme variant] : 3.12
2. CCACAUUUCAAGCAAUCGGUU [Fam1B.1 aminoacylation ribozyme variant] : 1.59
3. CCUCACUUCGAGCAAUCGGUC [Fam1B.1 aminoacylation ribozyme variant] : 1.08
4. AAGUUUGCUAAUAGCCACAAG [Fam3.1 aminoacylation ribozyme variant] : 0.821
5. ACUACCCGGGUCAUCGAGUGA [Fam2.1 aminoacylation ribozyme variant] : 4.64
6. AGUCACCUAGGUCAUUGGGUG [Fam2.2 aminoacylation ribozyme variant] : 3.03
7. AAGUUUGAUAAUAGUCCCAAG [Fam3.1 aminoacylation ribozyme variant] : 0.613
8. GUUACCCUGGUCAUCGAGUGG [Fam2.1 aminoacylation ribozyme variant] : 15
9. AUUACCCUGGUCUUCGUGUGA [Fam2.1 aminoacylation ribozyme variant] : 1.05
10. AUUCACCGAGGUCAUCGGGGG [Fam2.2 aminoacylation ribozyme variant] : 2.59
11. UAGUUUGCUAAUAGUCGCUAG [Fam3.1 aminoacylation ribozyme variant] : 1.18
12. AUUCAUCUAGGUCAUCGGGCG [Fam2.2 aminoacylation ribozyme variant] : 2.58
13. CCACACUCCAAGCAAUCGCUC [Fam1B.1 aminoacylation ribozyme variant] : 1.92
14. AUUACCCUGGUCGUAGAGUGA [Fam2.1 aminoacylation ribozyme variant] : 1.17
15. CCACACAGCAAGCAAUCGGUC [Fam1B.1 aminoacylation ribozyme variant] : 0.864
16. AUUCACGUAGGUCAUCAGGUG [Fam2.2 aminoacylation ribozyme variant] : 1.99
17. AUUACCCCGGUCGUCGAGUGA [Fam2.1 aminoacylation ribozyme variant] : 0.914
18. CUACGUCAGACAAUCGGUCUG [Fam1A.1 aminoacylation ribozyme variant] : 1.61
19. AUGCACCUCGGUCAUCGGGUG [Fam2.2 aminoacylation ribozyme variant] : 4.1
20. AUUCACCCAAGUCAUCGGGUG [Fam2.2 aminoacylation ribozyme variant] : 5.59
21. CGACAUUUCAAGCAAUCGGUC [Fam1B.1 aminoacylation ribozyme variant] : 1.18
22. AUAACCCUGGUCAUCGAGUGU [Fam2.1 aminoacylation ribozyme variant] : 6.98
23. GAGUAUGCUAAUAGUCGCAAG [Fam3.1 aminoacylation ribozyme variant] : 1.91
24. CCACACUUCAGGCAAUCGCUC [Fam1B.1 aminoacylation ribozyme variant] : 2.5
25. AUUACGCUGGUCAUCGAGUGA [Fam2.1 aminoacylation ribozyme variant] : 3.16
26. AUUCACCUAGGUCAUGAGGUG [Fam2.2 aminoacylation ribozyme variant] : 1.94
27. CUUACCCUGGACAUCGAGUGA [Fam2.1 aminoacylation ribozyme variant] : 2.78
28. CCACACUUCAAGCAUUAGGUC [Fam1B.1 aminoacylation ribozyme variant] : 0.501
29. AAGUUUGCUAAUAUUCGCGAG [Fam3.1 aminoacylation ribozyme variant] : 2.04
30. CUACUUCACACAAUCGUUCUG [Fam1A.1 aminoacylation ribozyme variant] : 0.649
31. CUACAUCAAACACUCGGUCUG [Fam1A.1 aminoacylation ribozyme variant] : 1.03
32. UUACUUCUAACAAUCGGUCUG [Fam1A.1 aminoacylation ribozyme variant] : 1.08
33. CUACUUCAAACCAUCGAUCUG [Fam1A.1 aminoacylation ribozyme variant] : 0.685
34. AUUACCCUCGUCUUCGAGUGA [Fam2.1 aminoacylation ribozyme variant] : 2.8
35. AAGUUUGCUAAAAGUCGCAAA [Fam3.1 aminoacylation ribozyme variant] : 1.7
